System: mice
PROTOCOL TEXT: Maximal dose which does not provoke any death (LD0), oral route, mice
Assay type: in vivo
RECORDED ENDPOINT: LD0 (maximal dose which does not provoke any death)

> print(dat)
                                   compound    data.value
1  COc1ccc(-c2cc3ccccc3[nH]2)cc1OCc1ccccc1 [Stabilizer 29, 2-(3'-benzyloxy-4'-methoxy-phenyl)indole]   > 500 mg/kg
2  COc1c(C)cc(-c2cc3ccccc3[nH]2)cc1C [Stabilizer 17]  > 3000 mg/kg
3  COc1cc(-c2cc3ccccc3[nH]2)ccc1OC(C)C [Stabilizer 27]  > 3000 mg/kg
4  c1ccc2[nH]c(-c3ccc4c(c3)OCCO4)cc2c1 [Stabilizer 34, 2-(3',4'-ethylenedioxy-phenyl)-indole]  > 3000 mg/kg
5  CCOc1ccc(-c2cc3ccccc3[nH]2)cc1OC [Stabilizer 23, 2-(3'-methoxy-4'-ethoxy-phenyl)-indole]   > 500 mg/kg
6  c1ccc2[nH]c(-c3ccc4c(c3)OCO4)cc2c1 [Stabilizer 33, 2-(3',4'-methylenedioxy-phenyl)-indole]  > 3000 mg/kg
7  CCCCOc1ccc(-c2cc3ccccc3[nH]2)cc1OC [Stabilizer 25, 2-(3'-methoxy-4'-butyloxy-phenyl)-indole]  > 3000 mg/kg
8  COc1cc(-c2cc3ccccc3[nH]2)ccc1OCc1ccccc1 [Stabilizer 31]   > 500 mg/kg

Data provenance is patent US4096112A.
